tested on: Plasmodium berghei; assay: Screen against P. berghei liver stage (PbLuc), transformed with Luciferase, at 10uM; assay type: functional, HepG2; conditions: tested at 10 uM
The whole screen tested about 69,000 compounds, of which about 8,600 (12%) showed an effect of 50% or more. The entries come from a sample that favours strong results as a whole.
Threshold check on INHIBITION: at or above 10% gives TRUE, strictly below gives FALSE.

Examples from the recorded data:
compound="CN(C)C(=O)CN1CCC2(CCCN(Cc3ccsc3)C2)C1=O (centres undefined)" classification=TRUE
compound=Cc1ccc(C(=O)N2CCCn3nc(CCC(=O)O)cc3C2)cc1Cl classification=TRUE
compound="CN(C)C(=O)CN1CCC2(CCCN(Cc3ccoc3)C2)C1=O (centres undefined)" classification=TRUE
compound=CS(=O)(=O)N[C@@H]1CN(C(=O)c2cc3ccccc3s2)C[C@H]1O classification=FALSE
compound="Cc1cc(C(F)(F)F)nc(C2(C)CCCN2CC(N)=O)n1 (centres undefined)" classification=TRUE
compound="Cc1cc(C)n(CC(C)NCc2nncn2C2CCCCC2)n1 (centres undefined)" classification=FALSE
compound=O=C(O)CCc1cc2n(n1)CCCN(C(=O)c1ccc(F)cc1F)C2 classification=FALSE
compound=Cc1noc(C)c1CN(C)C(=O)c1n[nH]c(N)c1-c1ccccc1 classification=FALSE

Req: Is the recorded value of INHIBITION equal to or greater than 10% for this compound? CC(NC(=O)NCC1(c2ccc(F)cc2)CC1)c1nncn1C (centres undefined)
Resp: TRUE

Req: What about CC(CN1CCOCC1)NCc1nncn1C1CCCCC1 (centres undefined) ?
Resp: TRUE

Req: And the next one, O=C1N(CC2CC2)CCC12CCN(Cc1ccoc1)CC2 ?
Resp: TRUE

Req: Same again, this time with CN(C)C(=O)CN1CCC2(CCCN(Cc3cccnc3)C2)C1=O (centres undefined)
Resp: TRUE

Req: Would you kindly repeat that for CCCc1nc(C(=O)N2CCCn3nc(CCC(=O)O)cc3C2)cs1 ?
Resp: FALSE

Req: Another compound to look at: O=C(O)CCc1cc2n(n1)CCCN(C(=O)c1cc3ccccc3s1)C2
Resp: TRUE

Req: Please answer likewise for O=C(c1ccc(Cl)s1)N1CCCn2nc(CN3CC[C@H](F)C3)cc2C1
Resp: TRUE

Req: Next compound: CN(C)C(=O)CN1CCC2(CCN(C(=O)N3CCCC3)CC2)C1=O
Resp: TRUE

Req: Cool, now CN1CCN(c2ccccc2NC(=O)NCCc2ccccc2)CC1
Resp: TRUE

Req: And for NC(=O)C1CCCN(Cc2c(-c3ccco3)[nH]c3ncccc23)C1 (centres undefined) ?
Resp: TRUE

Req: Also need Cn1cc(CN2CCCC3(CCN(Cc4cccnc4)C3=O)C2)cn1 (centres undefined) , thanks.
Resp: TRUE

Req: Same lookup for CN1CCC(CN2CCC3(CCCN(Cc4ccoc4)C3)C2=O)CC1 (centres undefined) , please.
Resp: FALSE

Req: Can you check CC(C)CN1CCC2(CCN(Cc3ccoc3)CC2)C1=O next?
Resp: TRUE

Req: Also need c1cnc2[nH]c(C3CCCNC3)c(CN3CCCOCC3)c2c1 (centres undefined) , thanks.
Resp: FALSE

Req: Same for O=C(O)CCc1cc2n(n1)CCCN(C(=O)c1ccc(Cl)s1)C2
Resp: TRUE

Req: Also Cc1nnc(CN(CCc2ccccc2)C2CCN(C)CC2)s1 , if possible.
Resp: FALSE
